# Tested on: SNB-75 CNS
# experiment-description: NCI tumour cell line growth inhibition, 48 h; in the data active = GI50 below about 0.43 µM; inactive = the rest
The reply should name one outcome from 1 (active), 0 (inactive)

Q: Which outcome was entered for the compound O=c1c(O)cccn1CCCN(CCCn1cccc(O)c1=O)CCn1cccc(O)c1=O in this test?
Ans: 0

Q: Which outcome was entered for the compound NNc1c2ccccc2nc2ccccc12 in this test?
Ans: 0

Q: Which outcome was entered for the compound COc1cc(/C=C/[N+](=O)[O-])cc(OC)c1OC in this test?
Ans: 0

Q: Which outcome was entered for the compound O=c1cccc(C#CC#CCCCO)o1 in this test?
Ans: 0

Q: Which outcome was entered for the compound CCN(C(=O)CN1CCN(c2cc3c(cc2F)c(=O)c(C(=O)O)cn3CC)CC1)c1nc(-c2ccccc2)cs1 in this test?
Ans: 1

Q: Which outcome was entered for the compound Brc1cccc(-c2cc(-c3ccc4nccnc4c3)[nH]n2)c1 in this test?
Ans: 0

Q: Which outcome was entered for the compound CC(=O)[CH-]C(=O)Nc1ccccc1.CC(=O)[CH-]C(=O)Nc1ccccc1.CC[O-].CC[O-].[Ti+4] in this test?
Ans: 0

Q: Which outcome was entered for the compound C[C@H]1c2ccccc2CN1CCCOc1cc2c(cc1OCC1CC1)C1(CCCC1)C(N)=N2 in this test?
Ans: 0

Q: Which outcome was entered for the compound COc1cccc2c1[C@H]1CO[C@H]3C4C[C@H](C(=O)O)C([C@@H](C2)N13)N4C (some centres not stated) in this test?
Ans: 0

Q: Which outcome was entered for the compound CCOC(=O)C1=C(C)N2C(=NC3=C(CCC/C3=C\c3ccc(Cl)cc3)C2c2ccc(Cl)cc2)S1 (configuration not stated) in this test?
Ans: 0

Q: Which outcome was entered for the compound O=S(=O)(NC1=NCCN1C(=S)SN1CCn2c1nsc2=S)c1cccc(OC(F)(F)F)c1 in this test?
Ans: 0

Q: Which outcome was entered for the compound O=c1c(-c2ccccc2)coc2cc(OC/C(=N/O)c3ccc(F)cc3)ccc12 in this test?
Ans: 0
